Taken from ChEMBL document CHEMBL1150665.

- MEASURED TARGET: Prostaglandin G/H synthase 2 (Homo sapiens, UniProt P35354)
- Sequence (P35354 whole entry): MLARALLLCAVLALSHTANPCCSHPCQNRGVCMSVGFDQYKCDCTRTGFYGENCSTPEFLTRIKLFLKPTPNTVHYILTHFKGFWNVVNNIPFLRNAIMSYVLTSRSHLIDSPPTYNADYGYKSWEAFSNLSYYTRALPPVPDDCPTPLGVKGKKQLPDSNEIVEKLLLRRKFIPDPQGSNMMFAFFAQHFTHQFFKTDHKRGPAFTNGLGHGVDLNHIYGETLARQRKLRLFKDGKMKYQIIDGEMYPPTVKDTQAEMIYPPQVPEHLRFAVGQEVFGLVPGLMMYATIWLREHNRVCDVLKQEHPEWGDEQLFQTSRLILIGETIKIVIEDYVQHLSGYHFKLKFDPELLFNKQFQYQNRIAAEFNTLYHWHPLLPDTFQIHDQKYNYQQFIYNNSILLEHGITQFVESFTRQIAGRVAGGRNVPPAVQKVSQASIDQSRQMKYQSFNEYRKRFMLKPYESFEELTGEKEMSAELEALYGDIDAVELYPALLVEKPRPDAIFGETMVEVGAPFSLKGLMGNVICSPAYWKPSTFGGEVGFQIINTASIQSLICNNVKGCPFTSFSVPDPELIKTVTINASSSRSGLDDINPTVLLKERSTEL
- PROCEDURE TEXT: Inhibition of COX2 in LPS-stimulated bone marrow derived mast cells
METRIC NAME: pIC50
As a rule, pIC50 stands for the negative log10 of the concentration, concentration in M.

Q. Any idea what pIC50 was measured for "O=c1cc(-c2ccc(O)c(O)c2)oc2cc(O)cc(O)c12" ?
A. 5.06

====

Reported inhibition values for the following compounds.
- MEASURED TARGET: Prostaglandin G/H synthase 2 (Homo sapiens) (UniProt P35354)
- CONDITIONS USED: at 100 µM
- Description: Inhibition of COX2 at 100 uM by scintillation proximity assay

SMILES REPRESENTATION	inhibition
COc1ccc(C(=O)O)cc1O	< 30%
CC(C)=CCC[C@](C)(O)[C@H]1CC=C(C)CC1	< 30%
CC[C@H]1CN2CCc3cc(OC)c(OC)cc3[C@@H]2C[C@@H]1C[C@H]1NCCc2cc(OC)c(OC)cc21	< 30%
O=C(O)c1cc(O)c(O)c(O)c1	< 30%
O=C(O)/C=C/c1ccc(O)c(O)c1	32%

Now look at this entry.
Q. Any idea what inhibition was measured for "CC(C)[C@@H]1CC[C@@H](C)C[C@H]1O" ?
A. < 30%
